These data points were gathered from ChEMBL document CHEMBL5214889.

molecular target: Proline--tRNA ligase (Plasmodium falciparum (isolate 3D7), UniProt Q8I5R7); assay: Inhibition of Plasmodium falciparum 3D7 Prolyl-tRNA synthetase
Sequence (Q8I5R7 whole entry): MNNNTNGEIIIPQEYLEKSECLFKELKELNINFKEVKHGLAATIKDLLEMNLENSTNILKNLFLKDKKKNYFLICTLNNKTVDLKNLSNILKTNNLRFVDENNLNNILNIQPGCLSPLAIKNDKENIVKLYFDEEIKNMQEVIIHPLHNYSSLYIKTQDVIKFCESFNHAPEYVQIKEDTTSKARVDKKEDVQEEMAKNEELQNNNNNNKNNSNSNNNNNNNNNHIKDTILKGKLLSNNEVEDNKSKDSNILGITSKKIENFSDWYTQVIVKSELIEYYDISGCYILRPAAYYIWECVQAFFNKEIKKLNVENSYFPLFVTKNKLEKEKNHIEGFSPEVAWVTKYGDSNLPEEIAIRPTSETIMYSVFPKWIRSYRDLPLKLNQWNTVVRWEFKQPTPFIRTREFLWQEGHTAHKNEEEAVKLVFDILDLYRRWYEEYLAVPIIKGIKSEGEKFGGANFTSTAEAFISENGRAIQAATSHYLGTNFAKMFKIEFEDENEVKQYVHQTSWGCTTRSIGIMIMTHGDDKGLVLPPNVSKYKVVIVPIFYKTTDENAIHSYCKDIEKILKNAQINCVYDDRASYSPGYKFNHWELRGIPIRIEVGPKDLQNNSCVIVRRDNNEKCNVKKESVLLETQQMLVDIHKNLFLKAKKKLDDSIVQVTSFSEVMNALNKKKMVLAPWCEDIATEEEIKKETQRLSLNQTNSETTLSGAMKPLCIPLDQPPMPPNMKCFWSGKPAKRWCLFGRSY
Assay metric: EC50 (nM)
Your answer is read as nM, so omit the unit and give the number.

Reported EC50, compound O=C(C[C@H]1NCCC[C@@H]1O)Cn1cnc2ccccc2c1=O : ____
4

----------
target: Sterol 14-alpha demethylase (Trypanosoma cruzi (strain CL Brener), UniProt Q7Z1V1); assay: Inhibition of Trypanosoma cruzi Sterol 14-alpha demethylase
Sequence (Q7Z1V1 whole entry): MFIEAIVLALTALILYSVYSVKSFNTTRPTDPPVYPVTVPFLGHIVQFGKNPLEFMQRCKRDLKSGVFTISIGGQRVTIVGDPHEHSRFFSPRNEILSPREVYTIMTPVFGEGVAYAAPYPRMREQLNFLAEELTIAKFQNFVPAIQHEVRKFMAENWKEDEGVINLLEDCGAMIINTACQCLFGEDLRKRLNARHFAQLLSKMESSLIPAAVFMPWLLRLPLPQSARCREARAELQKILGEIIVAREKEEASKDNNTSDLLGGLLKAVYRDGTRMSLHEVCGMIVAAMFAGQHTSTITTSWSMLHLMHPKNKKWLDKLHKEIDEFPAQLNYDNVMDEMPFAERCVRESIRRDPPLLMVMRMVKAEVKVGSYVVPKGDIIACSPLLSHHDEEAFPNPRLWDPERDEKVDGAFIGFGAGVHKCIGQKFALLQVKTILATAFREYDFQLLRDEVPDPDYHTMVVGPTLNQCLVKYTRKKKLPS
Assay metric: IC50 (nM)
Just the number in nM, nothing appended.

Field request: IC50 | item: C[C@@H](n1cnc2cc(Cl)ccc2c1=O)[C@](O)(Cn1cncn1)c1ccc(F)cc1F
1

----------
target: Phosphatidylinositol 4,5-bisphosphate 3-kinase catalytic subunit alpha isoform (Homo sapiens); test: Inhibition of PI3Kalpha (unknown origin)
Sequence (P42336 whole entry, canonical isoform): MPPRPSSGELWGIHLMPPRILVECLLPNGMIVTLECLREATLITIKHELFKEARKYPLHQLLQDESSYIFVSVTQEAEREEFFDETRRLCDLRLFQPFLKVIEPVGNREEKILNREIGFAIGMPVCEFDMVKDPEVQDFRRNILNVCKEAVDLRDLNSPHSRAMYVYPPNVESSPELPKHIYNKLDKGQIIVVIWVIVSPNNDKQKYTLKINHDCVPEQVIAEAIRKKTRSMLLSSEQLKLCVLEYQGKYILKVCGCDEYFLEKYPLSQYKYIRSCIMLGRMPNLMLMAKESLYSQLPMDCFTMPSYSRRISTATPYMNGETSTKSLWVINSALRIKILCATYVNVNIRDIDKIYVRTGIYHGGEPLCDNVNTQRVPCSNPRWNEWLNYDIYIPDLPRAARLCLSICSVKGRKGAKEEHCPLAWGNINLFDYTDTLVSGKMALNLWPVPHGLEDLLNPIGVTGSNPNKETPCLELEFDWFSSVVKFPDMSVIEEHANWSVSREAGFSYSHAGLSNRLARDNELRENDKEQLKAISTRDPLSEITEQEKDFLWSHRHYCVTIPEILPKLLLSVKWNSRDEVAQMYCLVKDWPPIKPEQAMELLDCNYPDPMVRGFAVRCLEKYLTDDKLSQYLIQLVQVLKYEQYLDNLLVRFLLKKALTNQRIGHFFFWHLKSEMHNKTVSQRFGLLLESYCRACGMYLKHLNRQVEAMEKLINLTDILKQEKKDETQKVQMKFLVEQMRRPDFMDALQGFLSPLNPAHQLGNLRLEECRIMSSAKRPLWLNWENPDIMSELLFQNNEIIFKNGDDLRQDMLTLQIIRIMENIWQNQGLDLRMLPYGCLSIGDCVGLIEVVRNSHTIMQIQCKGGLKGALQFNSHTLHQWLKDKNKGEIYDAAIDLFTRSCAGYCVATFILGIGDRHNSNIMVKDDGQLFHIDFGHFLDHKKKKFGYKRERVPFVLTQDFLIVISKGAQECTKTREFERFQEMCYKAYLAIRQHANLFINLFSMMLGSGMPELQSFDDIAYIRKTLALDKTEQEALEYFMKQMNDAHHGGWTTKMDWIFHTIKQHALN
Assay metric: pIC50
Answer as the number alone; pIC50 is minus log10 of concentration in mol/L.

Entry under review: O=C(CCCCCOc1ccc2c(c1)N=C(NC(=O)c1ccccc1)N1CCN=C21)NO . Reported pIC50?
8.53

----------
target: Epidermal growth factor receptor (Homo sapiens)
Sequence (P00533 whole entry): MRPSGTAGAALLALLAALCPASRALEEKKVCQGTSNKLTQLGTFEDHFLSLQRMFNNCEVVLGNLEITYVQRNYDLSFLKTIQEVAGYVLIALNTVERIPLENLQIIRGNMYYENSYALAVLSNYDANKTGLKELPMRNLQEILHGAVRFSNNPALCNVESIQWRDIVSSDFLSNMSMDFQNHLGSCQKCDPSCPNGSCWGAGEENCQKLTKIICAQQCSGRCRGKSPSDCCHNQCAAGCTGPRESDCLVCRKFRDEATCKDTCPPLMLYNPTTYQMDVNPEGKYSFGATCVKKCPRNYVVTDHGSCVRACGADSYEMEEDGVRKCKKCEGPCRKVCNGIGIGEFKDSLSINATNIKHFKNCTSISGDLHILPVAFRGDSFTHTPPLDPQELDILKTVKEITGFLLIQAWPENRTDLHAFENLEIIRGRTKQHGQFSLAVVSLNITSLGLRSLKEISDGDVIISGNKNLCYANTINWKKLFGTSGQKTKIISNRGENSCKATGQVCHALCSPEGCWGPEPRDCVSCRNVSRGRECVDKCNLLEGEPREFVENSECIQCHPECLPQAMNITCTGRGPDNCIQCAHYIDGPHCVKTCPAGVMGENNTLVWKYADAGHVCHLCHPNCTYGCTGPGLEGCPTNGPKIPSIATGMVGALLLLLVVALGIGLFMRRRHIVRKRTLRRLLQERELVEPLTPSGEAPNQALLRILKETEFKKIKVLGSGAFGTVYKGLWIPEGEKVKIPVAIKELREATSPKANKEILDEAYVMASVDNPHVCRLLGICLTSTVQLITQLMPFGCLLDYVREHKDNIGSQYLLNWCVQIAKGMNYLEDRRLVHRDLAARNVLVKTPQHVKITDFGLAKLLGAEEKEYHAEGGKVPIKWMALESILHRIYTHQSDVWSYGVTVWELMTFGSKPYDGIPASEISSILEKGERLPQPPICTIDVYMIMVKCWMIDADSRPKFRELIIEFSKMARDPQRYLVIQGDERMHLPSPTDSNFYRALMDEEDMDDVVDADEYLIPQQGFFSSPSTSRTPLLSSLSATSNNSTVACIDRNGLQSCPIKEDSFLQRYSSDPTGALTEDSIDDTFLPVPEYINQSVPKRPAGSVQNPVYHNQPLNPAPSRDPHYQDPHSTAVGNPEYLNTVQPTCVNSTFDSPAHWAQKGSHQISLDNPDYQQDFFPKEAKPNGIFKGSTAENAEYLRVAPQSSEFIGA
Assay metric: pIC50
Field pIC50 (float): negative decimal logarithm of the concentration in molar.

Report pIC50 for Cc1ccc2c(-c3ccccc3)nc(=O)n(C(C)C)c2c1 please.
8.70

----------
assay: Cytotoxicity against human HUVEC cells assessed as cell growth inhibition incubated for 72 hrs by SRB assay; type: toxicity, cell-based
Assay metric: IC50 at 72 h (nM)
Kindly provide the numeric value in nM only, without the unit symbol.

Bench note: what IC50 at 72 h did COc1cc2ncnc(-n3ncc4cc(NC(=O)Nc5ccc(C)c(Cl)c5)ccc43)c2cc1OC show?
1800

----------
tested on: HCT-8; assay: Cytotoxicity against human HCT-8 cells assessed as cell growth inhibition incubated for 72 hrs by MTT assay; assay type: functional, cell-based; settings: HCT-8, 72 h
Assay metric: pIC50
Field pIC50 (float): negative decimal logarithm of the concentration in molar.

Request the reported pIC50 associated with COc1ccc(N(C)c2nc(NCc3cccnc3)nc3ccccc23)cc1
6.96

----------
assay: Inhibition of PDE2 (unknown origin); parameters: species or system Homo sapiens
Assay metric: pIC50
Bear in mind: pIC50 is minus log10 of a mol/L concentration; give just that figure.

Value lookup for pIC50; key = O=C1CN2Cc3c(ccc(Cl)c3Cl)N=C2N1 [ANAGRELIDE]
7.59

----------
tested on: K562; test: Cytotoxicity against human K562 cells assessed as cell growth inhibition incubated for 72 hrs by MTT assay; format: functional, cell-based; details: K562, 72 h
Assay metric: IC50 (nM)
Number in nM, nothing else.

// returns reported IC50 for input COc1ccc(N(C)c2nc(NCc3cccnc3)nc3ccccc23)cc1
110

----------
molecular target: Tubulin; test: Inhibition of tubulin polymerization (unknown origin) incubated for 30 mins in presence of GTP by spectrophotometric analysis
Assay metric: IC50 (µM)
Write the number in µM without appending the unit.

Looking for the measured IC50 of COc1ccc(N(C)c2nc(NCc3cccnc3)nc3ccccc23)cc1 , can you help?
2.45
